# System Name: hTREM2 (Homo sapiens, UniProt Q9NZC2)
# Sequence (Q9NZC2 19-230): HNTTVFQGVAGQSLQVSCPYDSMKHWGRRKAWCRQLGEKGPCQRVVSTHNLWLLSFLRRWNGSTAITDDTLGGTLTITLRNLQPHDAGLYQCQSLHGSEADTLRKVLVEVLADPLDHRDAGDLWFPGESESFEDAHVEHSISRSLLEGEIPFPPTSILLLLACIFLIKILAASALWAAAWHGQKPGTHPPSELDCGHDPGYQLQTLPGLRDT
# Sequence (O43914 22-113 partner): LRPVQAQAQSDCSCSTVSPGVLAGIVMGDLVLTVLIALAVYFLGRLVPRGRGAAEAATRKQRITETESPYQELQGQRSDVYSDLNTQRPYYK
# Protocol Summary: TREM2 activity by cellular Syk phosphorylation (AlphaScreen/AlphaLISA) in TREM2/DAP12-HEK cells, used for Examples 1-305
# Type: cell-based
# Design: expressed in transfected cells
# Experimental Context: HEK293 Cells
Value Type: hTREM2 Emax

Solved entries:
Cc1cnc2c(-c3ccc(Cl)cc3F)nc(N3CCOC(C4CCOC4)C3)nc2n1 (centres unmarked) [Example 5]; +++ (Emax>150 and ≤250)
Cc1cc([C@H]2CN(c3nc(-c4ccc(F)cc4F)c4ncc(C)nc4n3)CCO2)ccn1 [Example 8]; ++ (Emax>100 and ≤150)
Cc1nc2nc([C@H]3CCO[C@@H](c4cnn(C)c4)C3)nc(-c3ccc(Cl)cc3F)c2nc1C (single isomer, unassigned) [Example 178]; ++++ (Emax>250)
Cc1nc2nc(N3CCO[C@@H](c4cnn(C)c4)C3)nc([C@H]3C[C@H](C(F)(F)F)C3)c2nc1C [Example 42]; ++ (Emax>100 and ≤150)

(Q) Need hTREM2 Emax of Cc1cnc2c(-c3ccc(F)cc3F)nc(N3CCO[C@H]([C@@H]4CCOC4)C3)nc2n1 [Example 253] , thanks.
(A) +++ (Emax>150 and ≤250)

(Q) Need hTREM2 Emax of COc1cc([C@H]2CN(c3cc4nc(C)ccc4c(-c4ccc(Cl)cc4F)n3)CCO2)ccn1 [Example 149] , thanks.
(A) ++++ (Emax>250)

(Q) Need hTREM2 Emax of Cc1ccc2c(-c3ccc(F)cc3F)nc(N3CCO[C@@H](c4cnn(C5CC5)c4)C3)nc2n1 [Example 92] , thanks.
(A) +++ (Emax>150 and ≤250)

(Q) Need hTREM2 Emax of Cc1cc2c(-c3ccc(Cl)cc3F)nc([C@@H]3CCO[C@H](c4cnn(C)c4)C3)nc2nc1C (single isomer, unassigned) [Example 226] , thanks.
(A) +++ (Emax>150 and ≤250)

(Q) Need hTREM2 Emax of Cn1cc([C@H]2CN(c3cc4ccccc4c(-c4ccc(Cl)cc4F)n3)CCO2)cn1 [Example 235] , thanks.
(A) + (Emax>45 and ≤100)

(Q) Need hTREM2 Emax of Cn1cc([C@H]2CN(c3cc4nccnc4c(-c4ccc(Cl)cc4F)n3)CCO2)cn1 [Example 233] , thanks.
(A) +++ (Emax>150 and ≤250)

(Q) Need hTREM2 Emax of Cc1cnc2cc(N3CCO[C@@H](c4cnn(C)c4)C3)nc(-c3ccc(Cl)cc3F)c2n1 [Example 74] , thanks.
(A) ++++ (Emax>250)

* * *

# System Name: hTREM2 (Homo sapiens)
# Protocol Summary: TREM2 activity by cellular Syk phosphorylation (AlphaScreen/AlphaLISA) in TREM2/DAP12-HEK cells, used for Examples 1-305
# Assay type: cell-based
# Set-up: expressed in transfected cells
# Experimental Context: HEK293 Cells
Value Type: hTREM2 Emax

Cc1nc2nc(N3CCO[C@@H](c4cnn(C)c4)C3)nc(C3CCCC3)c2nc1C [Example 140]; ++ (Emax>100 and ≤150)
Cc1cnc2c(-c3ccc(Cl)cc3F)cc([C@@H]3CCO[C@H](c4cnn(C)c4)C3)nc2n1 [Example 271]; +++ (Emax>150 and ≤250)
Cc1nc2nc(N3CCO[C@@H](c4cnn(C)c4)C3)nc(C3=CC[C@@H](C(F)(F)F)CC3)c2nc1C (single isomer, unassigned) [Example 127]; ++ (Emax>100 and ≤150)
Cc1cc([C@@H]2CN(c3nc4nc(C)cnc4c([C@H]4C[C@@H](C(F)(F)F)C4)n3)CCO2)cnn1 (single isomer, unassigned) [Example 14]; ++ (Emax>100 and ≤150)
CN1Cc2c(cc(N3CCO[C@@H](c4cnn(C)c4)C3)nc2-c2ccc(Cl)cc2F)C1=O [Example 119]; ++ (Emax>100 and ≤150)

Now for another entry.
(Q) Please provide the recorded hTREM2 Emax for Cc1cc([C@H]2C[C@@H](c3nc(-c4ccc(Cl)cc4F)c4nc(C)c(C)nc4n3)CCO2)ccn1 (single isomer, unassigned) [Example 207] , tested on hTREM2 (Homo sapiens).
(A) +++ (Emax>150 and ≤250)

* * *

Entries and their pEC50
# System Name: hTREM2 (Homo sapiens)
# Protocol Summary: TREM2 agonist potency by Syk phosphorylation (AlphaLisa) in HEK293T-hTREM2 cells, used for Examples 306-429
# Assay type: cell-based
# Set-up: expressed in transfected cells; host or cells: HEK293T (HEK293T-hTREM2 cells)
# Experimental Context: HEK293 Cells
pEC50: −log10 of the molar value.

Solved entries:
Cc1nc2nc(N3C[C@@H](C)O[C@H](c4cnn(C5CC5)c4)C3)nc(C34CC(C(F)(F)F)(C3)C4)c2nc1C; 6.30 to 7.30
Cc1cc([C@H]2C[C@@H](c3cc4nc(C)c(C)cc4c(-c4ccc(F)cc4F)n3)CCO2)ccn1 (racemic); ≥ 7.30
Cc1nc2cc([C@H]3C[C@@H](C)O[C@@H](c4cnn(C5CC5)c4)C3)nc(-c3ccc(F)cc3F)c2nc1C; ≥ 7.30
Cc1nc2nc(N3C[C@@H](C)O[C@@H](c4cnn(C5CC5)c4)C3)nc(-c3ccc(F)cc3F)c2nc1C; ≥ 7.30
Cc1nc2cc(N3C[C@H](C)O[C@@H](c4cnn(C5CC5)c4)C3)nc(-c3ccc(F)cc3F)c2nc1C (racemic); ≥ 7.30
Cc1ccc2c(C(C)C)nc([C@H]3C[C@@H](C)O[C@@H](c4cnn(C5CC5)c4)C3)nc2n1; 5.52 to 6.30
Cc1cnc2c(C34CC(C(F)(F)F)(C3)C4)nc(N3C[C@@H](C)O[C@@H](c4cnn(C5CC5)c4)C3)cc2n1 (racemic); 6.30 to 7.30
Cc1cc([C@H]2C[C@@H](c3nc(-c4ccc(C(F)(F)F)nc4)c4nc(C)c(C)nc4n3)CCO2)ccn1 (racemic); 6.30 to 7.30

Now for another entry.
(Q) Please provide the recorded pEC50 for Cc1cc([C@H]2C[C@@H](c3cc4nc(C)cnc4c(-c4ccc(C(F)(F)F)nc4)n3)CCO2)ccn1 (racemic) , tested on hTREM2 (Homo sapiens).
(A) 6.30 to 7.30

* * *

# System Name: hTREM2 (Homo sapiens)
# Protocol Summary: TREM2 activity by cellular Syk phosphorylation (AlphaScreen/AlphaLISA) in TREM2/DAP12-HEK cells, used for Examples 1-305
# Assay type: cell-based
# Set-up: expressed in transfected cells
# Experimental Context: HEK293 Cells
Value Type: hTREM2 Emax

Solved entries:
Cc1nc2nc([C@H]3CCO[C@@H](c4cnn(C5CC5)c4)C3)nc(-c3ccc(Cl)cc3F)c2nc1C (single isomer, unassigned); +++ (Emax>150 and ≤250)
Cc1cnc2c(n1)nc(N1CCO[C@@H](c3cnn(C)c3)C1)nc2[C@H]1C[C@H](C(F)(F)F)C1; ++ (Emax>100 and ≤150)
Cc1cc([C@H]2CN(c3nc4nc(C)c(C)nc4c([C@H]4C[C@H](C(F)(F)F)C4)n3)CCO2)cnn1; +++ (Emax>150 and ≤250)
Cn1cc([C@H]2CN(c3cc(-c4ccc(Cl)cc4F)c4cccnc4n3)CCO2)cn1; ++ (Emax>100 and ≤150)
Cc1cnc2c(-c3ccc(Cl)cc3F)nc([C@H]3CCO[C@@H](c4cnn(C)c4)C3)cc2n1 (single isomer, unassigned); ++++ (Emax>250)

Now for another entry.
(Q) Need hTREM2 Emax of Cc1nc2nc(N3CCO[C@@H](c4cnn(C)c4)C3)nc([C@H]3C[C@@H](C(F)F)C3)c2nc1C , thanks.
(A) +++ (Emax>150 and ≤250)

* * *

# System Name: UniProt:Q9NZC2
# Protocol Summary: TREM2 activity by cellular Syk phosphorylation (AlphaScreen/AlphaLISA) in TREM2/DAP12-HEK cells, used for Examples 1-305
# Format: cell-based
# Parameters: expressed in transfected cells
# Experimental Context: HEK293 Cells
Value Type: hTREM2 Emax

Cc1nc2nc([C@H]3CCO[C@@H](c4cnn(C5CC5)c4)C3)nc(-c3ccc(F)cc3F)c2nc1C; +++ (Emax>150 and ≤250)
Cc1cc([C@@H]2CN(c3nc(-c4ccc(Cl)cc4F)c4ccc(C)nc4n3)CCO2)cnn1 [Example 259]; ++++ (Emax>250)
Cc1nc2nc(N3CCO[C@@H](c4cnn(C)c4)C3)nc(-c3ccc(F)cn3)c2nc1C; +++ (Emax>150 and ≤250)
Cc1cc([C@H]2C[C@@H](c3nc4nc(C)c(C)nc4c([C@H]4C[C@H](C(F)(F)F)C4)n3)CCO2)ccn1 (single isomer, unassigned); +++ (Emax>150 and ≤250)
Cc1nc2nc([C@@H]3CCO[C@H](c4cnn(C5CC5)c4)C3)nc(-c3ccc(F)cc3F)c2nc1C; +++ (Emax>150 and ≤250)

(Q) Need hTREM2 Emax of Cc1ncc([C@H]2CN(c3nc(-c4ccc(Cl)cc4F)c4nc(C)c(C)nc4n3)CCO2)cn1 (single isomer, unassigned) , thanks.
(A) ++++ (Emax>250)

(Q) Need hTREM2 Emax of Cc1cc2c(-c3ccc(Cl)cc3F)nc([C@H]3CCO[C@@H](c4cnn(C5CC5)c4)C3)nc2nc1C (single isomer, unassigned) , thanks.
(A) ++++ (Emax>250)

(Q) Need hTREM2 Emax of Cc1ccc(-c2nc([C@@H]3CCO[C@@H](c4ccnc(C)c4)C3)nc3nc(C)c(C)nc23)c(F)c1 , thanks.
(A) ++++ (Emax>250)
